Test system: immortalized Fuchs' endothelial corneal dystrophy cells (iFECD)
Assay: Caspase 3/7 activity (Caspase-Glo 3/7 Assay) in iFECD under TGF-β2 stimulation, primary and secondary screening
Assay type: cell-based, human
Details: Homo sapiens, 28 h, secondary screening Caspase 3/7 activity divided by cell viability, read-out: Caspase 3/7 activity/Viable cell number (%)
Where a name gives a salt, the structure may show the parent alone.
Readings of activity at 10 µM for the listed compounds

CC(=O)Oc1ccccc1C(=O)Nc1ncc([N+](=O)[O-])s1 [Nitazoxanide] : 49.3%
COc1c(C)c2c(c(O)c1C/C=C(\C)CCC(=O)OCCN1CCOCC1)C(=O)OC2 [Mycophenolate Mofetil] : 70.4%
O=C(O)c1ccc(-n2nc(-c3ccccc3O)nc2-c2ccccc2O)cc1 [Deferasirox] : 68.9%
N#Cc1ccc(C(c2ccc(C#N)cc2)n2cncn2)cc1 [Letrozole] : 102%
COc1ccccc1OCCNCC(O)COc1cccc2[nH]c3ccccc3c12 (stereo not drawn) [Carvedilol] : 71.9%

Give the reported activity at 10 µM for this compound. CN(C)[C@@H]1C(O)=C(C(N)=O)C(=O)[C@@]2(O)C(O)=C3C(=O)c4c(O)cccc4[C@@](C)(O)[C@H]3C[C@@H]12 [Tetracycline]
94.3%

Given CN1CC2c3ccccc3Oc3ccc(Cl)cc3C2C1 (stereo not drawn) [Asenapine Maleate] , respond with its activity at 10 µM.
87.4%

For the compound Cc1[nH]c(=O)c(C#N)cc1-c1ccncc1 [Milrinone] , report activity at 10 µM.
95.2%

Give the reported value of activity at 10 µM for this record: CC[C@@H]1/C=C(\C)C[C@H](C)C[C@H](OC)[C@H]2O[C@@](O)(C(=O)C(=O)N3CCCC[C@H]3C(=O)O[C@H](/C(C)=C/[C@@H]3CC[C@H](Cl)[C@H](OC)C3)[C@H](C)[C@@H](O)CC1=O)[C@H](C)C[C@@H]2OC [Pimecrolimus]
62.6%

###

Tested on: immortalized Fuchs' endothelial corneal dystrophy cells (iFECD)
Assay: Caspase 3/7 activity (Caspase-Glo 3/7 Assay) in iFECD under TGF-β2 stimulation, primary and secondary screening
Format: cell-based, human
Details: Homo sapiens, TGF-β2 5 ng/mL + agent 10 μM, 28 hours, n=2, TGF-β2 supplemented group set as 100%, read-out: Primary screening Caspase 3/7 activity (%)
// activity at 10 µM lookup, one value per entry
Field format: number, assumed %, no unit text.

Fill in reported activity at 10 µM for this entry: CN(C)[C@@H]1C(O)=C(C(N)=O)C(=O)[C@@]2(O)C(O)=C3C(=O)c4c(O)cccc4[C@@](C)(O)[C@H]3C[C@@H]12 [Tetracycline]
60.1

Provide measured activity at 10 µM value, entry: CC[C@@H]1/C=C(\C)C[C@H](C)C[C@H](OC)[C@H]2O[C@@](O)(C(=O)C(=O)N3CCCC[C@H]3C(=O)O[C@H](/C(C)=C/[C@@H]3CC[C@H](Cl)[C@H](OC)C3)[C@H](C)[C@@H](O)CC1=O)[C@H](C)C[C@@H]2OC [Pimecrolimus]
70.1

###

Below, each entry is listed alongside its reported activity at 10 µM.
System: immortalized Fuchs' endothelial corneal dystrophy cells (iFECD)
Experiment: Caspase 3/7 activity (Caspase-Glo 3/7 Assay) in iFECD under TGF-β2 stimulation, primary and secondary screening
Assay type: cell-based, human
Settings: Homo sapiens, TGF-β2 5 ng/mL + agent 10 μM, 28 hours, n=2, TGF-β2 supplemented group set as 100%, read-out: Primary screening Caspase 3/7 activity (%)
Structures can show the parent of a compound that is named as a salt.
Answer format: numeric, % implied, no suffix.

Field: example entries. Status: answers known.
CN1CC2c3ccccc3Oc3ccc(Cl)cc3C2C1 (stereo not shown) [Asenapine Maleate] : 72.8
COc1c(C)c2c(c(O)c1C/C=C(\C)CCC(=O)OCCN1CCOCC1)C(=O)OC2 [Mycophenolate Mofetil] : 46.4
N#Cc1ccc(C(c2ccc(C#N)cc2)n2cncn2)cc1 [Letrozole] : 71.2
CC(=O)Oc1ccccc1C(=O)Nc1ncc([N+](=O)[O-])s1 [Nitazoxanide] : 36.5
O=C(O)c1ccc(-n2nc(-c3ccccc3O)nc2-c2ccccc2O)cc1 [Deferasirox] : 50

Assign activity at 10 µM to the following record: COc1ccccc1OCCNCC(O)COc1cccc2[nH]c3ccccc3c12 (stereo not shown) [Carvedilol]
50.3

Look up and report measured activity at 10 µM for this entry: Cc1[nH]c(=O)c(C#N)cc1-c1ccncc1 [Milrinone]
62.5
